Field: log10 of IC50. Provide a value for each of the compounds that follow.
Molecular target: MMP-13CD (catalytic domain of collagenase-3) (Homo sapiens)
Assay: Thiopeptolide substrate hydrolysis inhibition assay, MMP-13CD
Assay type: biochemical
Conditions: Table II; micromolar concentration; HEPES pH 7.0; read-out: IC50 MMP-13CD
Recorded IC50 (log10, nM)

>>> print(df.to_string())
                                     smiles                              study_system  endpoint_label  measured_number
0  COc1ccc(CNC(=O)c2cc3c(=O)n(CCOc4ccc(Br)cc4)c(=O)n(C)c3s2)cc1  MMP-13CD (catalytic domain of collagenase-3) (Homo sapiens)   log10 of IC50             2.26
1  COc1ccc(CNC(=O)c2cc3c(=O)n(Cc4cccc(OC)c4)c(=O)n(C)c3s2)cc1  MMP-13CD (catalytic domain of collagenase-3) (Homo sapiens)   log10 of IC50             2.04

Please state log10 of IC50 for every compound in the list that follows.
1. COc1ccc(CNC(=O)c2cc3c(=O)n(Cc4ccc([N+](=O)[O-])nc4)c(=O)n(C)c3s2)cc1
2. COc1cccc(CNC(=O)c2cc3c(=O)n(Cc4ccc(S(=O)(=O)N5CCC(C)CC5)cc4)c(=O)n(C)c3s2)c1
3. C=Cc1ccc(Cn2c(=O)c3cc(C(=O)OCc4ccccc4)sc3n(C)c2=O)cc1
4. O=C(OCc1ccncc1)c1cc2c(=O)n(Cc3ccc(Br)cc3)c(=O)[nH]c2s1

Ans.
[3.02, 1.58, 0.81, 2.41]

----------
Target sequence: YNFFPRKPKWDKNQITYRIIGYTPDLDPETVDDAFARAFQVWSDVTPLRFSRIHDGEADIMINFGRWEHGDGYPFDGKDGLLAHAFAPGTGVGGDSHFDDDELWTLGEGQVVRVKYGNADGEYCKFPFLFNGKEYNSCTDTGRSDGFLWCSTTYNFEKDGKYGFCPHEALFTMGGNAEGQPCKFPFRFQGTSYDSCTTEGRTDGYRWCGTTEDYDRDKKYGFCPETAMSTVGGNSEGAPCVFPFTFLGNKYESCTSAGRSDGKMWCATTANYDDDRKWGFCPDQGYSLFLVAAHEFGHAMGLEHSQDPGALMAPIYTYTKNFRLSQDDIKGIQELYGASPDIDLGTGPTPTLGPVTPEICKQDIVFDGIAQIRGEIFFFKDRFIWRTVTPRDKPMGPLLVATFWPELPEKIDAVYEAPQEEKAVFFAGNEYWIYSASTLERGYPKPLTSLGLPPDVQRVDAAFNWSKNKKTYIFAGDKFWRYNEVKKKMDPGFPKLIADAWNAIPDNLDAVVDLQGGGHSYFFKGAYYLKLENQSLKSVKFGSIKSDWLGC
Field: pIC50. Provide a value for each of the compounds that follow.
Answers are plain numbers, as −log10 of the molar value.

Please state pIC50 for every compound in the list that follows.
1. COC(=O)c1ccc(Cn2c(=O)c3cc(C(N)=O)sc3n(C)c2=O)cc1C [Example 249a]
2. COc1ccc(CNC(=O)c2cc3c(=O)n(Cc4ccc([N+](=O)[O-])nc4)c(=O)n(C)c3s2)cc1 [Example 369]
3. COc1cccc(CNC(=O)c2cc3c(=O)n(CCS(=O)(=O)c4ccc(Cl)cc4)c(=O)n(C)c3s2)c1 [Example 246]

Ans.
1: 4.52; 2: 4.52; 3: 4.52
